Source: patent US20260078119A1

Target or test system: FAK (Homo sapiens, UniProt Q05397)
Construct: homozygous knock-in of a HiBiT tag (Promega Corporation, Madison, WI) to the C-terminus of the FAK gene in its natural genomic locus; endogenous in cells; host or cells: JHH-4-FAK-HiBiT clone d01 (CRISPR-Cas9 knock-in at the endogenous locus)
Sequence (Q05397 whole entry): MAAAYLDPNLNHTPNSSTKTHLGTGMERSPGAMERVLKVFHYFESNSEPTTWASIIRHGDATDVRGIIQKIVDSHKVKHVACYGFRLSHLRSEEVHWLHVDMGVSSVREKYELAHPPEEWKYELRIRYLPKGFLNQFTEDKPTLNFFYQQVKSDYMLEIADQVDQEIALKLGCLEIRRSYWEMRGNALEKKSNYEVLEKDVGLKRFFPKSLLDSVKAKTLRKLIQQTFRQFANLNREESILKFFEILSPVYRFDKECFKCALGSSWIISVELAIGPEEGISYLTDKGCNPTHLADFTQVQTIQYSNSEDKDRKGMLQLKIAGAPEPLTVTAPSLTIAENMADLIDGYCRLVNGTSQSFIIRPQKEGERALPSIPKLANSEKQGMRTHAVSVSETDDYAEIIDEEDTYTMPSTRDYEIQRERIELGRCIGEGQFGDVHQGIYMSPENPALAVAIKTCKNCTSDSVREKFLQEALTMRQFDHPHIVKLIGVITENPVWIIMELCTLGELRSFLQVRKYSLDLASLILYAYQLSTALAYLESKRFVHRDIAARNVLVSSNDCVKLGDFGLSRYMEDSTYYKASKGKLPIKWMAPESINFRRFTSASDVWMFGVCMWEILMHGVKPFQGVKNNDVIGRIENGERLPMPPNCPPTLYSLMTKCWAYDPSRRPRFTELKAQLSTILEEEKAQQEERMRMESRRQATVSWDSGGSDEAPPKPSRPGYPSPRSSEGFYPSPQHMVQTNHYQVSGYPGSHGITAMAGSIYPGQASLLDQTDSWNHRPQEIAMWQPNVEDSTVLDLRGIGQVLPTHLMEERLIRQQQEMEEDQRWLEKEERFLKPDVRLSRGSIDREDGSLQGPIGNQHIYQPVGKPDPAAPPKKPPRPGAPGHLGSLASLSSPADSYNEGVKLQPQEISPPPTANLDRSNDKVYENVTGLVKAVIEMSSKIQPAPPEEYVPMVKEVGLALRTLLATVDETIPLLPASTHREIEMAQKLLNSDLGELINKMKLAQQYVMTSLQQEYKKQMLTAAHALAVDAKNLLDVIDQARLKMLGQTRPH
Assay explanation: FAK-HiBiT Degradation Assay
Assay type: cell-based
Condition: lower limit of the four parameter fit (value A); Ymax derived using DMSO control; JHH-4-FAK-HiBiT cells, two hours
Recorded endpoint: FAK HiBiT Ymin
Give the value as a plain number.

stdin: Which FAK HiBiT Ymin value belongs to O=C1CCC(N2Cc3cc(Cn4ncc5c(-c6ncccc6Cl)c(Cl)c(N6CC(F)C6)nc54)ccc3C2=O)C(=O)N1 (stereo not shown) ?
stdout: 8.19

stdin: Repeat with "O=C1CC[C@H](N2Cc3cc(Cn4ncc5c(-c6ncc(C(F)(F)F)cc6Cl)c(Cl)c(N6CC(F)C6)nc54)ccc3C2=O)C(=O)N1"
stdout: 7.25

stdin: Repeat with O=C1CCC(N2Cc3cc(Cn4ncc5c(-c6ncc(C(F)(F)F)cc6Cl)c(F)c(N6CC(F)C6)nc54)ccc3C2=O)C(=O)N1 (stereo not shown)
stdout: 8.97

stdin: Repeat with "O=C1CC[C@H](N2Cc3cc(Cn4ncc5c(-c6ncc(C(F)(F)F)cc6Cl)cc(N6CC[C@H](CCO)C6)nc54)ccc3C2=O)C(=O)N1"
stdout: 47.34

stdin: Repeat with CN(C)c1cc(-c2ccc(C#N)cc2Cl)c2ncn(Cc3ccc4c(c3)CN(C3CCC(=O)NC3=O)C4=O)c2n1 (stereo not shown)
stdout: 4.01

stdin: Repeat with "O=C1CC[C@H](N2Cc3cc(Cn4ncc5c(-c6ncc(C(F)(F)F)cc6Cl)cc(N6CC(F)C6)nc54)ccc3C2=O)C(=O)N1"
stdout: 8.05

stdin: Repeat with CC(C)Nc1cc(-c2ncc(C#N)cc2F)c2cnn(Cc3ccc4c(c3)CN(C3CCC(=O)NC3=O)C4=O)c2n1 (stereo not shown)
stdout: 81.91

stdin: Repeat with O=C1CCC(N2Cc3cc(Cn4ncc5c(-c6ncc(F)cc6Cl)cc(N6CC(F)C6)nc54)ccc3C2=O)C(=O)N1 (stereo not shown)
stdout: 10.37

stdin: Repeat with "O=C1CC[C@H](N2Cc3nc(Cn4ncc5c(-c6ncc(C(F)(F)F)cc6Cl)cc(N6CC(F)C6)nc54)ccc3C2=O)C(=O)N1"
stdout: 9.51

stdin: Repeat with O=C1CC[C@@H](N2Cc3cc(Cn4ncc5c(-c6ncc(C(F)(F)F)cc6Cl)cc(N6CC(F)C6)nc54)ccc3C2=O)C(=O)N1 (single isomer, unassigned)
stdout: 5.32

stdin: Repeat with CC(C)(O)c1ccc(-c2cc(N3CCC3)nc3c2cnn3Cc2ccc3c(c2)CN(C2CCC(=O)NC2=O)C3=O)c(Cl)c1 (stereo not shown)
stdout: 27.68

stdin: Repeat with O=C1CCC(N2Cc3cc(Cn4ncc5c(-c6ncc(OCC(F)(F)F)cc6Cl)cc(N6CC(F)C6)nc54)ccc3C2=O)C(=O)N1 (stereo not shown)
stdout: 10.50

stdin: Repeat with "O=C1CC[C@H](N2Cc3cc(Cn4ncc5c(-c6ncc(C(F)(F)F)cc6Cl)c(F)c(N6CC(F)C6)nc54)ccc3C2=O)C(=O)N1"
stdout: 7.57

----------
Can you tell me CAL-51 Prolif Ymin for the items I'm about to list?
System: CAL-51 cells
Assay explanation: CAL-51 Cell Proliferation Assay
Type: cell-based
Condition: minimal percent of DMSO control observed in the concentrations tested (Ymin-obs), 120 hours
Give the value as a plain number.

stdin: Which CAL-51 Prolif Ymin value belongs to O=C1CCC(N2Cc3cc(Cn4ncc5c(-c6ncc(C(F)(F)F)cc6Cl)cc(N6CC(F)C6)nc54)ccc3C2=O)C(=O)N1 (stereo not drawn) ?
stdout: 26.10

stdin: Repeat with O=C1CCC(N2Cc3cc(Cn4cnc5c(-c6ncc(F)cc6Cl)cc(N6CC(F)C6)nc54)ccc3C2=O)C(=O)N1 (stereo not drawn)
stdout: 46.08

stdin: Repeat with "Cc1cc(F)cnc1-c1cc(N2CC(F)C2)nc2c1cnn2Cc1ccc2c(c1)CN([C@H]1CCC(=O)NC1=O)C2=O"
stdout: 35.43

stdin: Repeat with CN(C)c1cc(-c2ncc(C#N)cc2Cl)c2c(n1)N(Cc1ccc3c(c1)CN(C1CCC(=O)NC1=O)C3=O)CC2 (stereo not drawn)
stdout: 23.56

stdin: Repeat with O=C1CC[C@@H](N2Cc3cc(Cn4ncc5c(-c6ncc(C(F)(F)F)cc6Cl)cc(N6CC(F)C6)nc54)ccc3C2=O)C(=O)N1 (single isomer, unassigned)
stdout: 38.15

stdin: Repeat with "CC(C)(O)c1cnc(-c2cc(N3CC(F)C3)nc3c2cnn3Cc2ccc3c(c2)CN([C@H]2CCC(=O)NC2=O)C3=O)c(Cl)c1"
stdout: 59.05

----------
Target or test system: FAK (Homo sapiens, UniProt Q05397)
Construct: homozygous knock-in of a HiBiT tag (Promega Corporation, Madison, WI) to the C-terminus of the FAK gene in its natural genomic locus; endogenous in cells; host or cells: JHH-4-FAK-HiBiT clone d01 (CRISPR-Cas9 knock-in at the endogenous locus)
Assay explanation: FAK-HiBiT Degradation Assay
Type: cell-based
Condition: JHH-4-FAK-HiBiT clone d01 cells; two hours incubation; 10-point dose response, 3-fold dilution starting at 1 μM; Nano-Glo HiBiT luminescence; read-out: FAK HiBiT EC50
I'd appreciate it if you marked entries yes when DC50 is lower than 2 nM and no when it is not.

stdin: Is 2 nM strictly greater than the compound's reported DC50? compound: O=C1CCC(N2Cc3cc(Cn4ncc5c(-c6ncc(F)cc6Cl)cc(N6CC(F)C6)nc54)ccc3C2=O)C(=O)N1 (stereo not shown)
stdout: no

stdin: Repeat with Cc1cc(Cl)cnc1-c1c(F)c(N2CC(F)C2)nc2c1cnn2Cc1ccc2c(c1)CN(C1CCC(=O)NC1=O)C2=O (stereo not shown)
stdout: yes

stdin: Repeat with COc1cnc(-c2cc(N3CC(F)C3)nc3c2cnn3Cc2ccc3c(c2)CN(C2CCC(=O)NC2=O)C3=O)c(Cl)c1 (stereo not shown)
stdout: no

stdin: Repeat with Cc1cnc(-c2cc(N3CC(F)C3)nc3c2cnn3Cc2ccc3c(c2)CN(C2CCC(=O)NC2=O)C3=O)nc1 (stereo not shown)
stdout: no

stdin: Repeat with Cc1nc2c(-c3ncc(C(F)(F)F)cc3Cl)cc(N3CC(F)C3)nc2n1Cc1ccc2c(c1)CN(C1CCC(=O)NC1=O)C2=O (stereo not shown)
stdout: yes

stdin: Repeat with "CCOc1cnc(-c2cc(N3CC(F)C3)nc3c2cnn3Cc2ccc3c(c2)CN([C@H]2CCC(=O)NC2=O)C3=O)c(C)c1"
stdout: no

stdin: Repeat with "CN1CCN(c2cc(-c3ncc(C(F)(F)F)cc3Cl)c3cnn(Cc4ccc5c(c4)CN([C@H]4CCC(=O)NC4=O)C5=O)c3n2)CC1"
stdout: no

stdin: Repeat with "O=C1CC[C@H](N2Cc3cc(Cn4ncc5c(-c6ncc(C(F)(F)F)cc6Cl)c(F)c(N6CC(F)C6)nc54)ccc3C2=O)C(=O)N1"
stdout: yes

stdin: Repeat with O=C1CCC(N2Cc3cc(Cn4ncc5c(-c6ncc(OCC(F)(F)F)cc6Cl)cc(N6CC(F)C6)nc54)ccc3C2=O)C(=O)N1 (stereo not shown)
stdout: no

stdin: Repeat with O=C1CCC(N2Cc3cc(Cn4cnc5c(-c6ccc(C(F)(F)F)cc6Cl)cc(N6CC(F)C6)nc54)ccc3C2=O)C(=O)N1 (stereo not shown)
stdout: yes

stdin: Repeat with O=C1CCC(N2Cc3cc(Cn4ncc5c(-c6ncc(C(F)(F)F)cc6Cl)cc(N6CC(F)C6)cc54)ccc3C2=O)C(=O)N1 (stereo not shown)
stdout: no

stdin: Repeat with O=C1CCC(N2Cc3cc(Cn4ncc5c(-c6ncc(F)cc6Cl)cc(N6CC[C@@H](O)C6)nc54)ccc3C2=O)C(=O)N1 (stereo partly shown)
stdout: no

----------
Target or test system: FAK (Homo sapiens, UniProt Q05397)
Construct: homozygous knock-in of a HiBiT tag (Promega Corporation, Madison, WI) to the C-terminus of the FAK gene in its natural genomic locus; endogenous in cells; host or cells: JHH-4-FAK-HiBiT clone d01 (CRISPR-Cas9 knock-in at the endogenous locus)
Assay explanation: FAK-HiBiT Degradation Assay
Type: cell-based
Condition: JHH-4-FAK-HiBiT clone d01 cells; two hours incubation; 10-point dose response, 3-fold dilution starting at 1 μM; Nano-Glo HiBiT luminescence; read-out: FAK HiBiT EC50
Text: To generate JHH-4-FAK-HiBiT cells for the FAK degradation assay, JHH-4 cells (Japanese Collection of Research Biosources Cell Bank, Japan) were transfected with ribonucleoprotein reagents to introduce, by CRISPR-Cas9 editing, the homozygous knock-in of a HiBiT tag (Promega Corporation, Madison, WI) to the C-terminus of the FAK gene in its natural genomic locus. […]
Recorded endpoint: DC50 (nM)
Quick note: give the figure in nM, leave out the unit.

stdin: Which DC50 value belongs to "O=C1CC[C@H](N2Cc3cc(Cn4ncc5c(-c6ncc(OC(F)(F)F)cc6Cl)cc(N6CC(F)C6)nc54)ccc3C2=O)C(=O)N1" ?
stdout: 0.57

stdin: Repeat with O=C1CC[C@@H](N2Cc3c(ccc(Cn4ncc5c(-c6ncc(F)cc6Cl)cc(N6CC(F)C6)nc54)c3F)C2=O)C(=O)N1 (single isomer, unassigned)
stdout: 42.1

stdin: Repeat with O=C1CCC(N2Cc3cc(Cn4ncc5c(-c6ncccc6C(F)(F)F)cc(N6CC(F)C6)nc54)ccc3C2=O)C(=O)N1 (stereo not drawn)
stdout: 8.56

stdin: Repeat with O=C1CC[C@@H](N2Cc3cc(Cn4ncc5c(-c6ncc(C(F)(F)F)cc6Cl)cc(N6CC(F)C6)nc54)ccc3C2=O)C(=O)N1 (single isomer, unassigned)
stdout: 13

stdin: Repeat with "O=C1CC[C@H](N2Cc3cc(Cn4ncc5c(-c6ncc(C(F)(F)F)cc6Cl)cc(N6CC(F)C6)nc54)cnc3C2=O)C(=O)N1"
stdout: 8

stdin: Repeat with Cc1nc2c(-c3ccc(F)cc3F)cc(N3CC(F)C3)nc2n1Cc1ccc2c(c1)CN(C1CCC(=O)NC1=O)C2=O (stereo not drawn)
stdout: 1.03

stdin: Repeat with Cc1cccnc1-c1cc(N2CC(F)C2)nc2c1cnn2Cc1ccc2c(c1)CN(C1CCC(=O)NC1=O)C2=O (stereo not drawn)
stdout: 46.7

stdin: Repeat with O=C1CCC(N2Cc3cc(Cn4ncc5c(-c6ncc(C(F)(F)F)cc6Cl)c(F)c(N6CC(F)C6)nc54)ccc3C2=O)C(=O)N1 (stereo not drawn)
stdout: 0.29

stdin: Repeat with N#Cc1ccc(-c2c(Cl)c(N3CC(F)C3)nc3c2cnn3Cc2ccc3c(c2)CN(C2CCC(=O)NC2=O)C3=O)c(F)c1 (stereo not drawn)
stdout: 0.56

stdin: Repeat with O=C1CCC(N2Cc3cc(Cn4ccc5c(-c6ncc(C(F)(F)F)cc6Cl)cc(N6CC(F)C6)nc54)ccc3C2=O)C(=O)N1 (stereo not drawn)
stdout: 0.95

stdin: Repeat with O=C1CCC(N2Cc3cc(Cn4ncc5c(-c6ncc(C(F)(F)F)cc6Cl)cc(N6CCCC6)nc54)ccc3C2=O)C(=O)N1 (stereo not drawn)
stdout: 0.64

stdin: Repeat with O=C1CC[C@@H](N2Cc3cc(Cn4ncc5c(-c6ncc(C(F)(F)F)cc6Cl)c(F)c(N6CC(F)C6)nc54)ccc3C2=O)C(=O)N1 (single isomer, unassigned)
stdout: 8.4
